Reference source: PubChem BioAssay (EPA / NIEHS)

# EXPERIMENT NOTES: ATG_M_32_CIS: Attagene CIS-FACTORIAL HepG2 Assay for M32 Transcription Factor (Internal Marker) (AID 2282949);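 also: background control marker of the multiplexed CIS panel rather than a real target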
# APPLIED CONDITIONS: HepG2 Attagene cis-factorial M32 reporter, mRNA; actives raise or lower the signal
Active and inactive are the calls of the source. The calls were made as follows: active = hit-call score of the fitted dose curve at least 0.9, where 1 is the maximum; inactive = score below 0.9.
Outcome codes: TRUE (active), FALSE (inactive)

NNCCO; FALSE
O=[N+]([O-])c1c2ccccc2cc2ccccc12; FALSE
CCOC(=O)c1ccccc1S(=O)(=O)NC(=O)Nc1nc(Cl)cc(OC)n1; FALSE
c1ccc(-c2cccc(-c3ccccc3)c2)cc1; FALSE
CCOP(=O)(OCC)SCCSCC; FALSE
O=C(N[C@H]1CN2CCC1CC2)c1ccc2c(c1)OCCO2; FALSE
C=CC(Cl)CCl (configuration not stated); FALSE
C#CCOC(=O)/C=C(C)/C=C/CC(C)CCCC(C)C (configuration not stated); FALSE
C=CC(=O)OCC(COC(=O)C=C)(COC(=O)C=C)COC(=O)C=C; FALSE
Oc1cccc(-c2ccccc2)c1; FALSE
COc1ccc(N)cc1; FALSE
O=c1oc2ccccc2c(O)c1C(CC(O)c1ccc(-c2ccc(Br)cc2)cc1)c1ccccc1 (configuration not stated); FALSE
Nc1ccc(-c2ccccc2)cc1; FALSE
CC(C=O)Cc1ccc2c(c1)OCO2 (configuration not stated); FALSE
Brc1ccc(Oc2c(Br)cc(Br)cc2Br)c(Br)c1; FALSE
Brc1ccc(Br)cc1; FALSE
O=c1nc(O)n(Cl)c(=O)n1Cl; FALSE
Cc1ccc(OP(=O)(Oc2ccc(C)cc2C)Oc2ccc(C)cc2C)c(C)c1; FALSE
c1ccc2c(c1)Oc1ccccc1O2; FALSE
O=C(O)c1cc(I)cc(I)c1I; FALSE
CCC[N+](CCC)(CCC)CCC; FALSE
CN(N=O)C(N)=O; FALSE
BrCc1ccc(Br)cc1; FALSE
N#CCCC(Br)(C#N)CBr (configuration not stated); FALSE
C=CCN=C=S; FALSE
CC(C)(C)c1ccc(CCOc2ncnc3ccccc23)cc1; FALSE
CN(C)c1ccc(N=O)cc1; FALSE
Clc1cccc(Cl)c1; FALSE
C=CCOC(F)(C(F)(F)F)C(F)(F)F; FALSE
CC(C)N(C(=O)CCl)c1ccccc1; FALSE
Cc1ccccc1OP(=O)(Oc1ccccc1)Oc1ccccc1; FALSE
CN(C)CCN(C)C; FALSE
COc1ccccc1N; FALSE
CC[N+](CC)(CC)CC; FALSE
CCCCCCCCCCCCCCC(Br)C(=O)O (configuration not stated); TRUE
O=C(NC(=O)c1c(F)cccc1F)Nc1ccc(Cl)cc1; FALSE
CCCCCCCCBr; FALSE
CS(=O)(=O)c1ccc(C(=O)C2C(=O)CCCC2=O)c(Cl)c1COCC(F)(F)F; FALSE
BrCCCCBr; FALSE
C=CC(=O)NC(C)(C)CC(C)=O; FALSE
CCCCCCCCCCCCCl; FALSE
CCOP(=S)(OCC)SCS(=O)(=O)C(C)(C)C; FALSE
O=NN1CCOCC1; FALSE
OCCCCO; FALSE
CCCCCCCCCCBr; FALSE
Oc1cc(Cl)c(Cl)cc1Cl; FALSE
CC(C)(COCC1CO1)COCC1CO1 (configuration not stated); FALSE
CC(C)C(C)(N)C#N (configuration not stated); FALSE
O=C1c2ccccc2C(=O)C1C(=O)C(c1ccccc1)c1ccc(Cl)cc1 (configuration not stated); FALSE
CC(C)(C)c1ccccc1O; TRUE
c1cc[c]([Sb]([c]2ccccc2)[c]2ccccc2)cc1; FALSE
Clc1cccc(Cl)c1Cl; FALSE
CCOCn1c(-c2ccc(Cl)cc2)c(C#N)c(Br)c1C(F)(F)F; TRUE
Fc1cccc(Cl)c1CCl; FALSE
OC(Cc1ccccc1Cl)(Cn1[nH]cnc1=S)C1(Cl)CC1 (configuration not stated); FALSE
COCC(=O)N(c1c(C)cccc1C)[C@H](C)C(=O)OC; FALSE
CCOC(=O)CC(=O)CCl; FALSE
CCOC(=O)C(SP(=S)(OC)OC)c1ccccc1 (configuration not stated); FALSE
CCCCN(CCCCO)N=O; FALSE
Oc1ccc(Cc2ccc(O)cc2)cc1; FALSE
CC(=O)C(F)(F)C(F)(F)F; FALSE
Oc1c(Br)cc(Br)cc1Br; FALSE

* * *

# TESTED SYSTEM: Nuclear receptor subfamily 1 group I member 2 (Homo sapiens) (UniProt O75469)
# Sequence (O75469 whole entry, looked up): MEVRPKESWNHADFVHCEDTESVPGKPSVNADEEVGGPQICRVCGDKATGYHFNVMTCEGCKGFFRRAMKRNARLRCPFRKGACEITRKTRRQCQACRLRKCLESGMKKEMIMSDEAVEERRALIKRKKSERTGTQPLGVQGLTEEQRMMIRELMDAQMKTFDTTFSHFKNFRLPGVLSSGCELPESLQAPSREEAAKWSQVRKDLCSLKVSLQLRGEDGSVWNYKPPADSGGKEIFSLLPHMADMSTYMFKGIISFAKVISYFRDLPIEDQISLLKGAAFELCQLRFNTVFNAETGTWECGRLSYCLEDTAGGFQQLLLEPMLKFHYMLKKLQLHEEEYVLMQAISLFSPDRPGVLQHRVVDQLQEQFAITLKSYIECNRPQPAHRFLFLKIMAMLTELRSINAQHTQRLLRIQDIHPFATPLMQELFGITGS
# EXPERIMENT NOTES: NVS_NR_hPXR: NovaScreen (NVS) Nuclear Receptor Binding Assay for human Pregnane X Receptor (PXR) (AID 2283365);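 also: a drop in FRET signal versus DMSO baseline means the compound binds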
# Method: NVS_NR_hPXR is a biochemical, single-readout assay that uses extracted gene-proteins in a cell-free assay. Measurements were taken 2 hours after chemical dosing in a 384-well plate.NVS_NR_hPXR is one of one assay component(s) measured or calculated from the NVS_NR_hPXR assay. […] This assay endpoint, NVS_NR_hPXR, was analyzed in the positive analysis fitting direction relative to DMSO as the negative control and baseline of activity. […]
Results filed as inconclusive are left out. Calls of active or inactive are those of the source. How the source made its calls: active means hit-call score of the fitted dose curve at least 0.9, where 1 is the maximum; inconclusive means response in the unintended direction; inactive means score below 0.9.
Labels: 1.0 (active), 0.0 (inactive)

CCCCCCCCCCCCc1cccc(S(=O)(=O)O)c1; 1.0
O=c1[nH]c(=O)n(Cl)c(=O)n1Cl; 0.0
Clc1cccc(Cl)c1Cl; 0.0
COc1nn(C(=O)NS(=O)(=O)c2ccccc2OC(F)(F)F)c(=O)n1C; 1.0
CC(O)(CS(=O)(=O)c1ccc(F)cc1)C(=O)Nc1ccc(C#N)c(C(F)(F)F)c1 (stereo not given); 0.0

* * *

# TESTED SYSTEM: Peroxisome proliferator-activated receptor gamma (Homo sapiens) (UniProt P37231)
# Sequence (P37231 whole entry, looked up): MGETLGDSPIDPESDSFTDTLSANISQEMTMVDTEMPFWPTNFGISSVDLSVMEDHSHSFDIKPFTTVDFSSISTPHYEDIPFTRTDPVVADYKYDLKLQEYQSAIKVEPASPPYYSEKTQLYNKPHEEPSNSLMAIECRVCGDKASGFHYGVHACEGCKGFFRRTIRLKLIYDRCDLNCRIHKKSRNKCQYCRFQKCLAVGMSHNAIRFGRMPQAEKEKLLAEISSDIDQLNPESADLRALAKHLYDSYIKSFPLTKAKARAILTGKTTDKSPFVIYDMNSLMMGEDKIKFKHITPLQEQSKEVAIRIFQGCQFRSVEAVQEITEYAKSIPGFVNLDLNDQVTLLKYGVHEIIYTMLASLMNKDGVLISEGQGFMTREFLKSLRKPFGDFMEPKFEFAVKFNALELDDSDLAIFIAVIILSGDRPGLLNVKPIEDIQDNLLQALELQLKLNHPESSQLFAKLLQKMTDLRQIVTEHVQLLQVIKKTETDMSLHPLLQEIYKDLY
# EXPERIMENT NOTES: ATG_PPARg_TRANS: Attagene TRANS-FACTORIAL HepG2 Assay for human Peroxisome Proliferator-activated Receptor-gamma (PPARg) (AID 2283007)
Records with an inconclusive call do not appear. The source made the active and inactive calls. Rule for the calls: active = hit-call score of the fitted dose curve at least 0.9, where 1 is the maximum; inconclusive = response in the unintended direction; inactive = score below 0.9.
Outcome codes: active, inactive

Oc1cc(Cl)c(Cl)cc1Cl; active
CC1(C)[C@H](/C=C2\CCSC2=O)[C@@H]1C(=O)OCc1coc(Cc2ccccc2)c1; active
O=S(=O)(Oc1ccc(Cl)cc1)c1ccc(Cl)cc1; active
CC(C)(c1ccc(O)c(-c2ccccc2)c1)c1ccc(O)c(-c2ccccc2)c1; active
O=S1(=O)OC(c2cc(Br)c(O)c(Br)c2)(c2cc(Br)c(O)c(Br)c2)c2ccccc21; active
Cc1c([N+](=O)[O-])c(C)c([N+](=O)[O-])c(C(C)(C)C)c1[N+](=O)[O-]; inactive
COc1ccc([N+](=O)[O-])cc1O; inactive
N#CCC#N; inactive
CC(=Cc1ccccc1)[N+](=O)[O-]; active
C[C@@H]1O[C@@H](O[C@H]2C[C@@H](O)[C@]3(CO)[C@H]4[C@H](O)C[C@]5(C)[C@@H](C6=CC(=O)OC6)CC[C@]5(O)[C@@H]4CC[C@]3(O)C2)[C@H](O)[C@H](O)[C@H]1O; active

* * *

# EXPERIMENT NOTES: BSK_4H_SRB: Viability Assessment in the BioMAP Diversity Plus: 4H Assay (AID 2283027);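 also: cells exposed to compound for 24 h before staining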
# APPLIED CONDITIONS: primary human endothelial cells (HUVEC)
Active and inactive are the calls of the source. How the source made its calls: active means hit-call score of the fitted dose curve at least 0.9, where 1 is the maximum; inactive means score below 0.9.
Outcome codes: 1 (active), 0 (inactive)

CC(C)=CC1C(C(=O)OCc2cccc(Oc3ccccc3)c2)C1(C)C (centres undefined); 0
c1ccc2sc(SNC3CCCCC3)nc2c1; 0
Oc1c(Cl)cc(Cl)cc1Cl; 0
[Cl][Sn]([c]1ccccc1)([c]1ccccc1)[c]1ccccc1; 1

* * *

# TESTED SYSTEM: CCAAT/enhancer-binding protein beta (Homo sapiens)
# EXPERIMENT NOTES: ATG_C_EBP_CIS: Attagene CIS-FACTORIAL HepG2 Assay for human CCAAT/Enhancer Binding Protein (C/EBP) beta (AID 2282927)
# APPLIED CONDITIONS: HepG2 Attagene cis-factorial transcription factor reporter; actives raise or lower the signal
Active and inactive are the calls of the source. The calls were made as follows: active = hit-call score of the fitted dose curve at least 0.9, where 1 is the maximum; inactive = score below 0.9.
Possible outcomes: true (1) = active, false (0) = inactive

O=S1OC[C@@H]2[C@H](CO1)[C@]1(Cl)C(Cl)=C(Cl)[C@@]2(Cl)C1(Cl)Cl (stereo partly drawn); false (0)
COC(=O)Nc1cccc(OC(=O)Nc2cccc(C)c2)c1; false (0)
CC(=O)C(F)(F)C(F)(F)F; false (0)
Oc1cc(Cl)c(Cl)cc1Cl; true (1)
CCCCCCCCCCCCBr; false (0)
C=CCOC(F)(C(F)(F)F)C(F)(F)F; false (0)
Cc1ccc(OP(=O)(Oc2ccc(C)cc2C)Oc2ccc(C)cc2C)c(C)c1; false (0)
Nc1nc(N)nc(Cl)n1; false (0)
CCCCCCCCCCCCCl; false (0)
O=S(=O)(C(Cl)(Cl)Cl)C(Cl)(Cl)Cl; false (0)
O=S(=O)(c1ccc(Cl)cc1)c1cc(Cl)c(Cl)cc1Cl; false (0)
Nc1ccc(N)cc1; false (0)
c1cc[c]([Sb]([c]2ccccc2)[c]2ccccc2)cc1; false (0)
